Test: Absorbance spectra of the dyes in DCM (UV-Visible/NIR spectrophotometer)
Assay type: physicochemical
Settings: dichloromethane, at absorption λmax
Listing of recorded absorption (DCM) ε by entry.

Recorded absorption (DCM) ε, per entry:
>  <testSmiles>
C1=C(c2ccccc2)Oc2c(cc3c4c2CCCN4CCC3)/C1=C/C=C/C=C/c1cc(-c2ccccc2)[o+]c2c3c4c(cc12)CCCN4CCC3.F[B-](F)(F)F

>  <absorption (DCM) ε>
2.5±0.1×10^5 M^−1cm^−1

$$$$
>  <testSmiles>
ClC1=C(/C=C/c2cc(-c3ccccc3)[o+]c3cc(N4CCC4)ccc23)CCC/C1=C\C=C1/C=C(c2ccccc2)Oc2cc(N3CCC3)ccc21.F[B-](F)(F)F

>  <absorption (DCM) ε>
2.07±0.01×10^5 M^−1cm^−1

$$$$
>  <testSmiles>
ClC1=C(/C=C/c2cc(-c3ccccc3)[o+]c3c4c5c(cc23)CCCN5CCC4)CCC/C1=C\C=C1/C=C(c2ccccc2)Oc2c1cc1c3c2CCCN3CCC1.F[B-](F)(F)F

>  <absorption (DCM) ε>
2.38±0.07×10^5 M^−1cm^−1

$$$$

absorption (DCM) ε measured on Cc1cc(-c2ccccc2)[o+]c2cc(N(C)C)ccc12 = 17000 M⁻¹ cm⁻¹

Record CCN(CC)c1ccc2c(c1)OC(c1ccccc1)=C/C2=C\C=C1/CCCC(/C=C/c2cc(-c3ccccc3)[o+]c3cc(N(CC)CC)ccc23)=C1Cl.F[B-](F)(F)F . Reported absorption (DCM) ε: 1.8±0.2×10^5 M^−1cm^−1
